Structures can show the parent of a compound that is named as a salt.
The compounds below have reported IC50 for hNav1.5 (Homo sapiens (Human), UniProt Q14524).
Report the value in µM with no unit label.

Illustrative cases are given below, each with its answer.
- compound: "Cc1ccc2c(-c3ccccc3[C@@H](N)Cc3nc(S(C)(=O)=O)ccc3C)noc2c1 [Example 19, hydrochloride]"
  test_system: "hNav1.5 (Homo sapiens (Human), UniProt Q14524)"
  unit_tag: "µM"
  IC50: 11.5
- compound: "Cc1ccc(S(C)(=O)=O)nc1C[C@H](N)c1ccccc1-c1noc2cc(Cl)ccc12 [Example 23, hydrochloride]"
  test_system: "hNav1.5 (Homo sapiens (Human), UniProt Q14524)"
  unit_tag: "µM"
  IC50: 13.9
- compound: "CS(=O)(=O)c1ccc(F)c(C[C@H](N)c2ccccc2-c2noc3c(F)cccc23)n1 [Example 26, hydrochloride]"
  test_system: "hNav1.5 (Homo sapiens (Human), UniProt Q14524)"
  unit_tag: "µM"
  IC50: 19.2

Let us move to another entry and its IC50.
Item: CS(=O)(=O)c1ccc(F)c(C[C@H](N)c2ccccc2-c2noc3ccc(F)cc23)n1 [Example 22, hydrochloride] | IC50: 24.1

----------
IC50 by entry:
# test_system: hERG channel (Homo sapiens (Human), UniProt Q12809)
# Sequence (Q12809 whole entry): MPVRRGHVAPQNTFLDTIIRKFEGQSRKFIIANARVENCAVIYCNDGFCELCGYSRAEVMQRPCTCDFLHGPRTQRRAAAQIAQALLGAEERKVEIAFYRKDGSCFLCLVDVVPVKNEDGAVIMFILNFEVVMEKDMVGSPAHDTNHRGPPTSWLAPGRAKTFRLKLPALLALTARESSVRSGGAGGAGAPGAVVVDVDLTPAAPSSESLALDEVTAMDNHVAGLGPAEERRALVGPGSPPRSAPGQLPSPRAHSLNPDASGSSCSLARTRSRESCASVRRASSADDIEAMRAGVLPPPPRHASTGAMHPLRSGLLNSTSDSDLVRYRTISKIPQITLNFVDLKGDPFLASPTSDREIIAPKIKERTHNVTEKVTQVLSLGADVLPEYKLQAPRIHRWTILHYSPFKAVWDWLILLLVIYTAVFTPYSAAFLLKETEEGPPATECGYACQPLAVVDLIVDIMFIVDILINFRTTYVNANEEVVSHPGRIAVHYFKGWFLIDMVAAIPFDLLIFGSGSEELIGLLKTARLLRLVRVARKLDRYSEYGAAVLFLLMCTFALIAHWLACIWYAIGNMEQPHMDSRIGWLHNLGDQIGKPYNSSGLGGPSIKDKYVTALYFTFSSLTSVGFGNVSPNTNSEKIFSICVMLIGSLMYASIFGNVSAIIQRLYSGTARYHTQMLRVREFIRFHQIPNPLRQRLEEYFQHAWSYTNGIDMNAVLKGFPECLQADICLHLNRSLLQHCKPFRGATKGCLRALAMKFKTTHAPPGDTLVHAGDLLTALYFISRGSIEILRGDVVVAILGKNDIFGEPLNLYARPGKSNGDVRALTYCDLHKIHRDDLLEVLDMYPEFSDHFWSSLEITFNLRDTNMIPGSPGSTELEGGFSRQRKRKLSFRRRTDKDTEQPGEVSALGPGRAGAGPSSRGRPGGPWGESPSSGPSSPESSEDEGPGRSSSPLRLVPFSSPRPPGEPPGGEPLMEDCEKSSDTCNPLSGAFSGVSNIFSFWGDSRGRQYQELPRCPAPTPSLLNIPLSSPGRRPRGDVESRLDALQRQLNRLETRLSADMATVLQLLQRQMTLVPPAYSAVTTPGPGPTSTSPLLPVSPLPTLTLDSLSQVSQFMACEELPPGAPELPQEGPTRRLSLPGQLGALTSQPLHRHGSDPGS
# method_notes: hERG assay using IonWorks Quattro
# Type: cell-based
# test_settings: IonWorks protocol; read-out: IW hERG IC50
Counter-ions that a name gives are not always drawn.
Report the value in µM with no unit label.

Item: CC[C@@H](c1ccccn1)[C@H](N)c1ccccc1-c1noc2ccccc12 [Example 46, hydrochloride] | IC50: 8.2

Item: Cn1nc(-c2ccccc2[C@@H](N)Cc2ccccn2)c2ccccc21 [Example 60, hydrochloride] | IC50: 0.32

Item: CN(C)C(=O)c1cccc(C[C@H](N)c2ccccc2-c2noc3ccccc23)n1 [Example 89, hydrochloride] | IC50: 19.1

Item: CNc1cccc(C[C@H](N)c2ccccc2-c2noc3cc(C#N)ccc23)n1 [Example 97, dihydrochloride] | IC50: 0.54

Item: `N[C@@H](Cc1cccc(Br)n1)c1ccccc1-c1noc2ccccc12` | IC50: 12.8

Item: CC(C)C(c1ccccn1)[C@H](N)c1ccccc1-c1noc2ccccc12 (stereo partly drawn) [Example 48, hydrochloride] | IC50: 16

Item: `N[C@@H](Cc1ccccn1)c1ccccc1-c1noc2cc(CCO)ccc12` | IC50: 7.8

Item: Cc1cccnc1C[C@H](N)c1ccccc1-c1noc2ccccc12 [Example 47, hydrochloride] | IC50: 2.8

Item: `N#Cc1ccc2c(-c3ccccc3[C@@H](N)Cc3cccc(C#N)n3)noc2c1` | IC50: 2.9

Item: Cc1cccc(C[C@H](N)c2ccccc2-c2nn(C)c3ccccc23)n1 [Example 61, hydrochloride] | IC50: 0.46

Item: N#Cc1cccc(C[C@H](N)c2ccccc2-c2noc3ccccc23)n1 [Example 116, hydrochloride] | IC50: 10.3

----------
The compounds below have reported pIC50 for UniProt Q14524.
Where a name gives a salt, the structure may show the parent alone.
On this scale, pIC50 is minus log10 of a concentration expressed in M (mol/L).

Illustrative cases are given below, each with its answer.
- compound: "Nc1cccc(C[C@H](N)c2ccccc2-c2noc3ccccc23)n1 [Example 121, hydrochloride]"
  readout_number: 5.80
- compound: "Cc1cccc(-c2noc3ccccc23)c1[C@@H](N)Cc1ccccn1 [Example 84, hydrochloride]"
  readout_number: 5.24
- compound: "Cc1cccnc1C[C@H](N)c1ccccc1-c1noc2ccccc12 [Example 47, hydrochloride]"
  readout_number: 5.24

Let us move to another entry and its pIC50.
Test item N[C@@H](Cc1cc(Br)ccn1)c1ccccc1-c1noc2ccccc12 [Example 117, hydrochloride] ; UniProt Q14524; reported pIC50 was 5.57

----------
IC50 by entry:
# test_system: HCN2 (Homo sapiens (Human), UniProt Q9UL51)
# Sequence (Q9UL51 whole entry): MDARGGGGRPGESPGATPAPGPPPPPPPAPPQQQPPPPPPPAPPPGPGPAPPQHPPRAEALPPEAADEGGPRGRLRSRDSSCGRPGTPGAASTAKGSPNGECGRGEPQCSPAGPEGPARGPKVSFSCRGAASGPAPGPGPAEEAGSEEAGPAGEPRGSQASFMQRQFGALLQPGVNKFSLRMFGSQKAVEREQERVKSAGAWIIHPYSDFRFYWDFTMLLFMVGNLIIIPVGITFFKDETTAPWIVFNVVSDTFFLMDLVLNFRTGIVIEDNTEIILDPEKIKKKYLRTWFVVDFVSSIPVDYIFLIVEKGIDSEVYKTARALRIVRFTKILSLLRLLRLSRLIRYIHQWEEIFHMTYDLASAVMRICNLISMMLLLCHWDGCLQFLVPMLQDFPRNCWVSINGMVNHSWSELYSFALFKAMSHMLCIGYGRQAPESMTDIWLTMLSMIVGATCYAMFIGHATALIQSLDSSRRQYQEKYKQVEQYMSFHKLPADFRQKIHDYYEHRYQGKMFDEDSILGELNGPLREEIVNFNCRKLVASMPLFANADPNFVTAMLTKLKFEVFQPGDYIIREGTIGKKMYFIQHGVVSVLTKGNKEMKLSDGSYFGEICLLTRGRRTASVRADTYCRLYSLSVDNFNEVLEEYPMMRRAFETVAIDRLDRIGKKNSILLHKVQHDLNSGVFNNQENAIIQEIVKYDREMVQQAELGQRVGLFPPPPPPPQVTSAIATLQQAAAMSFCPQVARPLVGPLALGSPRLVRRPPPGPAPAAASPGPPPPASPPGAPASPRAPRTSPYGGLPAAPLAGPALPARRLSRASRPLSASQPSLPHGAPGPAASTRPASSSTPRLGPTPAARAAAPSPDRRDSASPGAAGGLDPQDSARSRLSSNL
# method_notes: HCN2 current assay using PatchXpress 7000A
# Format: cell-based
# test_settings: PatchXpress protocol; read-out: PX HCN2 IC50
Counter-ions that a name gives are not always drawn.
Report the value in nM with no unit label.

Test item CC(c1ccccn1)C(N)c1ccccc1-c1noc2ccccc12 (single isomer, unassigned; diastereomer 3) [Example 3] ; HCN2 (Homo sapiens (Human), UniProt Q9UL51); reported IC50 was 2300

Test item `Cc1cc(C#N)cnc1C[C@H](N)c1ccccc1-c1noc2ccccc12` ; HCN2 (Homo sapiens (Human), UniProt Q9UL51); reported IC50 was 1900

Test item Cc1ccc(Br)nc1C[C@H](N)c1ccccc1-c1noc2ccccc12 [Example 57, hydrochloride] ; HCN2 (Homo sapiens (Human), UniProt Q9UL51); reported IC50 was 600

Test item CC(c1ccccn1)C(N)c1ccccc1-c1noc2ccccc12 (single isomer, unassigned; diastereomer 2) [Example 2] ; HCN2 (Homo sapiens (Human), UniProt Q9UL51); reported IC50 was 960

Test item `N#Cc1cccc(C[C@H](N)c2ccccc2-c2noc3cc(Br)ccc23)n1` ; HCN2 (Homo sapiens (Human), UniProt Q9UL51); reported IC50 was 1600

----------
# test_system: HCN2 (Homo sapiens (Human), UniProt Q9UL51)
# method_notes: HCN2 current assay using PatchXpress 7000A
# Assay type: cell-based
# test_settings: PatchXpress protocol; read-out: PX HCN2 IC50
Counter-ions that a name gives are not always drawn.
pIC50 by entry:
On this scale, pIC50 is minus log10 of a concentration expressed in M (mol/L).

Illustrative cases are given below, each with its answer.
- compound: "CN(C)C(=O)c1cccc(C[C@H](N)c2ccccc2-c2noc3ccccc23)n1 [Example 89, hydrochloride]"
  pIC50: 5.51
- compound: "N#Cc1ccc2c(-c3ccccc3[C@@H](N)Cc3cccc(OCCO)n3)noc2c1 [Example 99, hydrochloride]"
  pIC50: 5.62
- compound: "N[C@@H](Cc1ccccn1)c1c(F)cccc1-c1noc2ccccc12 [Example 111, hydrochloride]"
  pIC50: 5.74
- compound: "COCCNc1cccc(C[C@H](N)c2ccccc2-c2noc3ccccc23)n1 [Example 52, hydrochloride]"
  pIC50: 5.80

Item: N[C@@H](Cc1ccccn1)c1cccc(Br)c1-c1noc2ccccc12 [Example 86, hydrochloride] | pIC50: 4.76

Item: Cc1ccc(C[C@H](N)c2ccccc2-c2noc3ccccc23)nc1 [Example 92, hydrochloride] | pIC50: 5.72

Item: `COc1ccnc(C[C@H](N)c2ccccc2-c2noc3ccccc23)c1` | pIC50: 6.00

Item: `N[C@@H](Cc1cccc(Br)n1)c1ccccc1-c1noc2ccccc12` | pIC50: 5.92

----------
# test_system: HCN4 (Homo sapiens (Human), UniProt Q9Y3Q4)
# Sequence (Q9Y3Q4 whole entry, species assumed): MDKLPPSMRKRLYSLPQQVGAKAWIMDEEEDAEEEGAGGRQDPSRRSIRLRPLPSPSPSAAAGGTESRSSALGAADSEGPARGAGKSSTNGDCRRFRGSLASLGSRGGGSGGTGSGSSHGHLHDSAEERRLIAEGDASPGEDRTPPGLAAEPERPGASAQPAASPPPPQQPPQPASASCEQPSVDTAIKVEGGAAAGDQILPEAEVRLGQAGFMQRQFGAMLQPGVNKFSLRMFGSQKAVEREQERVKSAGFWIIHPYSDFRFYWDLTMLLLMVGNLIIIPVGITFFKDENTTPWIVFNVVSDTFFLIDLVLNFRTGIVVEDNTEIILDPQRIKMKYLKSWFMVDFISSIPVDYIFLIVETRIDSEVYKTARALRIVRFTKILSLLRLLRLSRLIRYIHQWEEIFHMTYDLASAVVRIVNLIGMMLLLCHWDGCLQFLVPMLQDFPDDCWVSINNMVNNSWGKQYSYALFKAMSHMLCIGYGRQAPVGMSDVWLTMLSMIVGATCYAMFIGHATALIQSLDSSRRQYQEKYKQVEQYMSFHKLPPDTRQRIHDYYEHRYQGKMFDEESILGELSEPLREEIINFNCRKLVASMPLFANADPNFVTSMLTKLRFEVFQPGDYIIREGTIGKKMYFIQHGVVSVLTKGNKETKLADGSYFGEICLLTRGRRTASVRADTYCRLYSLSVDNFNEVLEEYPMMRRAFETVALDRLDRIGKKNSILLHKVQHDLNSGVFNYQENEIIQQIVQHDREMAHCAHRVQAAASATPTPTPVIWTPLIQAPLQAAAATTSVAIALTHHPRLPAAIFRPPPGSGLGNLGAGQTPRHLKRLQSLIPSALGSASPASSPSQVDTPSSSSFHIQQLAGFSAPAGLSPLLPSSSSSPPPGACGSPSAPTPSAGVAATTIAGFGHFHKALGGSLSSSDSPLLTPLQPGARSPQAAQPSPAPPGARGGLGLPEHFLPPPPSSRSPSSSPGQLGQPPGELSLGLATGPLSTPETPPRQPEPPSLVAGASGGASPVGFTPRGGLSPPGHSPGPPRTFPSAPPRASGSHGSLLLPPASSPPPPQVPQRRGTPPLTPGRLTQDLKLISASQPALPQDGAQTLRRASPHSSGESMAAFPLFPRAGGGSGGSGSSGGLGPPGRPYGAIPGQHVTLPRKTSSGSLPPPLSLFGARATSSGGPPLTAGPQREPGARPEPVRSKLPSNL
# method_notes: HCN4 current assay using PatchXpress 7000A
# Type: cell-based
# test_settings: PatchXpress protocol; read-out: PX HCN4 IC50
Where a name gives a salt, the structure may show the parent alone.
value_type: IC50

Illustrative cases are given below, each with its answer.
- molecule: "N[C@@H](Cc1ccccn1)c1cc(Br)ccc1-c1noc2ccccc12 [Example 83]"
  value_type: "IC50"
  result: "> 30 µM"
- molecule: "NC(=O)c1ccc(F)c(C[C@H](N)c2ccccc2-c2noc3ccccc23)n1 [Example 72, formate]"
  value_type: "IC50"
  result: "10.3 µM"
- molecule: "N#Cc1ccc2c(-c3ccccc3[C@@H](N)Cc3ccccn3)noc2c1 [Example 29]"
  value_type: "IC50"
  result: "> 30 µM"

Item: CC(C)n1nc(-c2ccccc2[C@@H](N)Cc2cccc(C#N)n2)c2ccccc21 [Example 67] | IC50: 19.5 µM

----------
# test_system: hERG channel (Homo sapiens (Human), UniProt Q12809)
# method_notes: hERG assay using IonWorks Quattro
# Assay type: cell-based
# test_settings: IonWorks protocol; read-out: IW hERG IC50
# Procedure: Example 127A, Using IonWorks Quattro Solutions for recording hERG currents were: This was followed by a […] step of is to −30 mV to evoke the hERG tail current. This sequence was repeated 5 times at a frequency of 0.25 Hz (see FIG. 3). Currents were measured from the tail step at the 5th pulse and referenced to the holding current. Compounds were then incubated for 6-7 minutes prior to a second measurement of the hERG signal using an identical pulse train.
Where a name gives a salt, the structure may show the parent alone.
value_type: pIC50
On this scale, pIC50 is minus log10 of a concentration expressed in M (mol/L).

Illustrative cases are given below, each with its answer.
- compound: "N[C@@H](Cc1ccccn1)c1c(F)cccc1-c1noc2ccccc12 [Example 111, hydrochloride]"
  pIC50: 5.13
- compound: "N[C@@H](Cc1cccc(-c2ncco2)n1)c1ccccc1-c1noc2ccccc12 [Example 118, hydrochloride]"
  pIC50: 5.51

Let us move to another entry and its pIC50.
Test item N[C@@H](Cc1cccc(N2CCCC2)n1)c1ccccc1-c1noc2ccccc12 [Example 119, hydrochloride] ; hERG channel (Homo sapiens (Human), UniProt Q12809); reported pIC50 was 5.89
